# TEST_TARGET: MALT1 (Homo sapiens (Human), UniProt Q9UDY8)
# Sequence (Q9UDY8 whole entry): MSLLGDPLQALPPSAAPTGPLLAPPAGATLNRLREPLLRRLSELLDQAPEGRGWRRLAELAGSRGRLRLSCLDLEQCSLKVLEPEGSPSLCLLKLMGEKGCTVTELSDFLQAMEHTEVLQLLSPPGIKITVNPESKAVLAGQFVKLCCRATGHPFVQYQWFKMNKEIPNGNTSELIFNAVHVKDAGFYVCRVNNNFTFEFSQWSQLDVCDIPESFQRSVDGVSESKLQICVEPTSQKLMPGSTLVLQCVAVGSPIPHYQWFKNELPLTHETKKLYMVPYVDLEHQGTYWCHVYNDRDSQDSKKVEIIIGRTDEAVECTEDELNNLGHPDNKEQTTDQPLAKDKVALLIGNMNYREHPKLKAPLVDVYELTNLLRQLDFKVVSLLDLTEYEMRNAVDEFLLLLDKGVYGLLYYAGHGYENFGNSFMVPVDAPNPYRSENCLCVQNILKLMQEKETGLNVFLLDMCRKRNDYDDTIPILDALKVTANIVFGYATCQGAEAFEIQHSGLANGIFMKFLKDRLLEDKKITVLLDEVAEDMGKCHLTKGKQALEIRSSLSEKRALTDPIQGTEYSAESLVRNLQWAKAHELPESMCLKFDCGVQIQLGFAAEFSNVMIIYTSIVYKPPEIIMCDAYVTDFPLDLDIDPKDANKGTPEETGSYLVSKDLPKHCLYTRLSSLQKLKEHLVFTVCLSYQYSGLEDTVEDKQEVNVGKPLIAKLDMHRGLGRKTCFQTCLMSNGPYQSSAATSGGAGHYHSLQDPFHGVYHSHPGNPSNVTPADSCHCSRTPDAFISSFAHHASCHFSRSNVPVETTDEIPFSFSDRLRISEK
# ASSAY_NOTES: MALT1 enzymatic activity inhibition (fluorescence, Ac-LRSR-AMC substrate)
# Assay type: biochemical
# MEASUREMENT_PARAMETERS: recombinant MALT1 1.5 ng/μl, Ac-LRSR-AMC 1 μM
# Experimental: Compound activity was determined using recombinant MALT1 protein (Creative Biomart, Cat #MALT1-28H) and Ac-LRSR-AMC Substrate in an in vitro enzymatic reaction. The enzymatic assay used to determine activity was a Fluorescence assay using a Microplate Reader ClarioStar Plus. […] Plates were centrifuged for 1 min at 200 g, then the fluorescence was measured immediately using Microplate Reader. […] The fluorescence was measured after the whole incubation using Microplate Reader. […]
MEASURED_ENDPOINT: EC50

Q: Query EC50 for CC(C)c1c(NC(=O)Nc2cnc(-c3noc(CCCC(=O)N4CCN(c5ccc6c(c5)CN(C5CCC(=O)N(COC(=O)C(C)(C)C)C5=O)C6=O)CC4)n3)c(Cl)c2)cnc2ccnn12 (centres unmarked) [Compound 137]
Ans: ≤ 0.2 µM

Q: Look up and report measured EC50 for this entry: Cc1cc(NC(=O)Nc2cnc3c(Cl)cnn3c2C2CCCC2)cnc1-c1noc(CCCN2CCN(c3cc4c(cc3F)C(=O)N(C3CCC(=O)NC3=O)C4=O)CC2)n1 (centres unmarked) [Compound 24]
Ans: 1 to 5 µM

Q: Output measured EC50 for this item: O=C1CCC(N2Cc3cc(N4CCN(C(=O)CCCc5nc(-c6ncc(NC(=O)Nc7cnc8ccnn8c7C7CCCC7)cc6Cl)no5)CC4)ccc3C2=O)C(=O)N1 (centres unmarked) [Compound 71]
Ans: ≤ 0.2 µM

Q: Dear colleague, please send me the reported EC50 for Cc1cc(NC(=O)Nc2cnc3ccnn3c2C(C)C)cnc1-c1noc(CCCCCC(=O)N2CCN(c3ccc4c(c3)CN(C3CCC(=O)NC3=O)C4=O)CC2)n1 (centres unmarked) [Compound 91] when you can.
Ans: ≤ 0.2 µM

Q: Identify EC50 associated with the compound Cc1cc(NC(=O)Nc2cnc3ccnn3c2C(C)(C)C)cnc1-c1noc(CCCCCN2CCN(c3ccc4c(c3)CN(C3CCC(=O)NC3=O)C4=O)CC2)n1 (centres unmarked) [Compound 150]
Ans: 1 to 5 µM

Q: Could you please provide reported EC50 for Cc1cc(NC(=O)Nc2cnc3ccnn3c2C2CCCC2)cnc1-c1noc(COCCCCN2CCN(c3ccc4c(c3)CN(C3CCC(=O)NC3=O)C4=O)CC2)n1 (centres unmarked) [Compound 11] ? Thanks!
Ans: 0.2 to 0.5 µM

Q: Give the reported EC50 for this compound. O=C1CCC(N2Cc3cc(N4CCN(CCCCCCc5nnc(-c6ccc(NC(=O)Nc7cnc8ccnn8c7C7CCCC7)cn6)s5)CC4)ccc3C2=O)C(=O)N1 (centres unmarked) [Compound 143]
Ans: 1 to 5 µM

Q: Give the reported EC50 for this compound. Cc1cc(NC(=O)Nc2cnc3ccnn3c2C2CCCC2)cnc1-c1cn(CCCCCCC(=O)N2CCN(c3ccc4c(c3)CN(C3CCC(=O)NC3=O)C4=O)CC2)nn1 (centres unmarked) [Compound 6]
Ans: 0.5 to 1 µM

Q: // fetch EC50 given entry Cc1cc(-c2noc(CCCCC(=O)N3CCN(c4ccc5c(c4)CN(C4CCC(=O)NC4=O)C5=O)CC3)n2)ncc1NC(=O)Nc1cnc2ccnn2c1C1CCCC1 (centres unmarked) [Compound 94]
Ans: > 5 µM

Q: Output measured EC50 for this item: O=C(CCOCCOCCN1CCN(c2ccc3c(c2)CN(C2CCC(=O)NC2=O)C3=O)CC1)NCCOc1ncc(Cl)cc1NC(=O)Nc1cnc2ccnn2c1C1CCCC1 (centres unmarked) [Compound 38]
Ans: 0.2 to 0.5 µM

Q: Please give the documented EC50 of CC(C)c1c(NC(=O)Nc2cnc(-c3noc(CCCCC(=O)N4CCN(c5ccc6c(c5)CN(C5CCC(=O)NC5=O)C6=O)CC4)n3)c(Cl)c2)cnc2ccnn12 (centres unmarked) [Compound 139]
Ans: ≤ 0.2 µM
